Target: TMEM63B; note: test concentration or dose not given here
Experiment: reporter assay of Huesken 2005
Settings: siRNA
Oligonucleotides are given in HELM: sugar(base)linkage, 5' to 3'; d 2'-deoxyribose, r ribose, m 2'-O-methylribose, p phosphate. ss, as = sense and antisense strand
Below, each entry is listed with its recorded normalised inhibition (eCFP-eYFP dual reporter).
value_type: normalised inhibition (eCFP-eYFP dual reporter) (%)

substance	numeric_value
RNA1{r(U)p.r(C)p.r(A)p.r(C)p.r(C)p.r(A)p.r(C)p.r(C)p.r(A)p.r(U)p.r(G)p.r(G)p.r(A)p.r(C)p.r(A)p.r(A)p.r(G)p.r(U)p.r(U)p.d(T)p.d(T)}|RNA2{r(A)p.r(A)p.r(C)p.r(U)p.r(U)p.r(G)p.r(U)p.r(C)p.r(C)p.r(A)p.r(U)p.r(G)p.r(G)p.r(U)p.r(G)p.r(G)p.r(U)p.r(G)p.r(A)p.d(T)p.d(G)}$$$RNA1{StrandType:ss}|RNA2{StrandType:as}$	67.7
RNA1{r(G)p.r(U)p.r(G)p.r(G)p.r(U)p.r(U)p.r(G)p.r(U)p.r(G)p.r(G)p.r(G)p.r(C)p.r(G)p.r(U)p.r(C)p.r(C)p.r(U)p.r(C)p.r(U)p.d(T)p.d(T)}|RNA2{r(A)p.r(G)p.r(A)p.r(G)p.r(G)p.r(A)p.r(C)p.r(G)p.r(C)p.r(C)p.r(C)p.r(A)p.r(C)p.r(A)p.r(A)p.r(C)p.r(C)p.r(A)p.r(C)p.d(C)p.d(A)}$$$RNA1{StrandType:ss}|RNA2{StrandType:as}$	53.5
RNA1{r(G)p.r(A)p.r(U)p.r(A)p.r(C)p.r(U)p.r(G)p.r(U)p.r(G)p.r(G)p.r(A)p.r(C)p.r(C)p.r(C)p.r(C)p.r(A)p.r(G)p.r(A)p.r(A)p.d(T)p.d(T)}|RNA2{r(U)p.r(U)p.r(C)p.r(U)p.r(G)p.r(G)p.r(G)p.r(G)p.r(U)p.r(C)p.r(C)p.r(A)p.r(C)p.r(A)p.r(G)p.r(U)p.r(A)p.r(U)p.r(C)p.d(T)p.d(G)}$$$RNA1{StrandType:ss}|RNA2{StrandType:as}$	73.8
RNA1{r(C)p.r(A)p.r(C)p.r(C)p.r(A)p.r(C)p.r(U)p.r(C)p.r(C)p.r(A)p.r(G)p.r(C)p.r(C)p.r(A)p.r(U)p.r(C)p.r(A)p.r(U)p.r(C)p.d(T)p.d(T)}|RNA2{r(G)p.r(A)p.r(U)p.r(G)p.r(A)p.r(U)p.r(G)p.r(G)p.r(C)p.r(U)p.r(G)p.r(G)p.r(A)p.r(G)p.r(U)p.r(G)p.r(G)p.r(U)p.r(G)p.d(A)p.d(G)}$$$RNA1{StrandType:ss}|RNA2{StrandType:as}$	70.2
RNA1{r(C)p.r(U)p.r(A)p.r(G)p.r(C)p.r(U)p.r(C)p.r(C)p.r(C)p.r(A)p.r(C)p.r(G)p.r(U)p.r(C)p.r(U)p.r(A)p.r(U)p.r(G)p.r(U)p.d(T)p.d(T)}|RNA2{r(A)p.r(C)p.r(A)p.r(U)p.r(A)p.r(G)p.r(A)p.r(C)p.r(G)p.r(U)p.r(G)p.r(G)p.r(G)p.r(A)p.r(G)p.r(C)p.r(U)p.r(A)p.r(G)p.d(G)p.d(A)}$$$RNA1{StrandType:ss}|RNA2{StrandType:as}$	66.7
